Test: Pharmacokinetic parameters in the mouse after intramuscular dose
Assay type: in vivo, mice
Settings: blood, im, 20 mg/kg, read-out: T1/2 (blood)
Please provide measured half-life for the entries that follow.
Numbers only, in min.

Example compounds with recorded half-life:
- compound.smiles: "Cc1cc[n+](CCSC2=C(C(=O)[O-])N3C(=O)[C@H]([C@@H](C)O)[C@H]3C2)cc1"
  unit: "min"
  data.value: 8.2
- compound.smiles: "Cc1cccc[n+]1CCSC1=C(C(=O)[O-])N2C(=O)[C@H]([C@@H](C)O)[C@H]2C1"
  unit: "min"
  data.value: 11
- compound.smiles: "C[C@@H](O)[C@H]1C(=O)N2C(C(=O)[O-])=C(SCC[n+]3ccc(CO)cc3)C[C@H]12"
  unit: "min"
  data.value: 10

Attention now turns to another entry.
Query: Which half-life is reported for this compound? Cc1cc(C)c[n+](CCSC2=C(C(=O)[O-])N3C(=O)[C@H]([C@@H](C)O)[C@H]3C2)c1
Response: 10.4
